assay.details: self-splicing fitness, log relative to wild type (ln ratio); higher = more splicing; Tetrahymena group I intron in knt gene, E. coli kanamycin selection, DiMSum; sequences stand for … in CUCUCU…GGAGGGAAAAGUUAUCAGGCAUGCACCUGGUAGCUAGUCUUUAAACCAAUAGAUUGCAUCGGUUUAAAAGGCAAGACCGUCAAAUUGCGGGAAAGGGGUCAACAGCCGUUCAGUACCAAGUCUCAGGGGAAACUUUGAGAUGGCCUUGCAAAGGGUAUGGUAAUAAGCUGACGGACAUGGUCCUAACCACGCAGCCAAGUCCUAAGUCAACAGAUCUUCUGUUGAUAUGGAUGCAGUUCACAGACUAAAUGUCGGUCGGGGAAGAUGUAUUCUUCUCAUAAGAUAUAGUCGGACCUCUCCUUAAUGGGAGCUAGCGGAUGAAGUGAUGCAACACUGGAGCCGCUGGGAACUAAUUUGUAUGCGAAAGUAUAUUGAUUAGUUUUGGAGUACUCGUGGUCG;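 note: selection with 25 µg/mL kanamycin versus none on LB agar overnight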
condition.summary: 30 °C
Below: a set of entries, each annotated with reported self-splicing fitness (ln).
reported.endpoint: self-splicing fitness (ln)

In [3]: df
Out[3]:
                     seq  result
 0  AAUGAGCAAUAUUACGGCUC   -1.82
 1  CGAGAGCAAUAUUACGACAG   -2.82
 2  GACUAGCAAUAUUACGGUUA  -0.116
 3  CGUGAGCAAUAUUACGACCU   -1.34
 4  AACUAGCAAUAUUACGUAGC   -4.04
 5  AAAUAGCAAUAUUACGAGUC   -3.89
 6  GUUUAGCAAUAUUACGAUCC   -0.72
 7  AAAGAGCAAUAUUACGAGGA   -2.26
 8  AUUGAGCAAUAUUACGACAC   -2.36
 9  CAAGAGCAAUAUUACGCAAG   -3.06
10  GGGAAGCAAUAUUACGCGCU   -2.66

====

assay.details: self-splicing fitness, log relative to wild type (ln ratio); higher = more splicing; Tetrahymena group I intron in knt gene, E. coli kanamycin selection, DiMSum; sequences stand for … in CUCUCU…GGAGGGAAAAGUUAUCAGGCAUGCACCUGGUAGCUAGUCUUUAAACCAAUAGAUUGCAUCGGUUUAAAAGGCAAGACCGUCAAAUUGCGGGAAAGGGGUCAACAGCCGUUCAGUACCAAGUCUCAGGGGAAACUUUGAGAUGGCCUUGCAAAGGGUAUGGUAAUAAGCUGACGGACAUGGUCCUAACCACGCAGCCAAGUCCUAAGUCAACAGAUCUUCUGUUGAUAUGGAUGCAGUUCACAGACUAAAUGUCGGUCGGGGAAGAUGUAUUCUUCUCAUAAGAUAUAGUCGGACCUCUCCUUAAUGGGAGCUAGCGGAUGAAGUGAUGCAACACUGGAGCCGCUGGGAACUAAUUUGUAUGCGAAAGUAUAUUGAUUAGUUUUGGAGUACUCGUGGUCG
condition.summary: 37 °C
Below: a set of entries, each annotated with reported self-splicing fitness (ln).
reported.endpoint: self-splicing fitness (ln)

>>> print(df.to_string())
                     seq           reported_endpoint  number
 0  GAAUAGCAAUAUUACGUGAC  self-splicing fitness (ln)   -1.43
 1  GACCAGCAAUAUUACGCAGU  self-splicing fitness (ln)  -0.904
 2  CAGGAGCAAUAUUACGACUU  self-splicing fitness (ln)  -0.618
 3  ACAGAGCAAUAUUACGGUUC  self-splicing fitness (ln)   -2.16
 4  UGCAAGCAAUAUUACGGCUU  self-splicing fitness (ln)   -1.72
 5  UGUGAGCAAUAUUACGCUGG  self-splicing fitness (ln)   -2.71
 6  CAAGAGCAAUAUUACGUCCG  self-splicing fitness (ln)  -0.696
 7  CACGAGCAAUAUUACGGCCG  self-splicing fitness (ln)  -0.105
 8  GGUGAGCAAUAUUACGAAAA  self-splicing fitness (ln)   -2.66
 9  ACAGAGCAAUAUUACGCUCG  self-splicing fitness (ln)   -1.12
10  UAGGAGCAAUAUUACGAAAG  self-splicing fitness (ln)   -1.17
11  GGACAGCAAUAUUACGCAAU  self-splicing fitness (ln)   0.311
12  GACAAGCAAUAUUACGUAUU  self-splicing fitness (ln)   -1.66
13  GGUAAGCAAUAUUACGUGCG  self-splicing fitness (ln)  -0.227
14  AUCUAGCAAUAUUACGGUGA  self-splicing fitness (ln)  -0.608
15  CCGAAGCAAUAUUACGAAGG  self-splicing fitness (ln)   -2.15
16  AGAAAGCAAUAUUACGAAUG  self-splicing fitness (ln)   -2.25
17  CCAUAGCAAUAUUACGCCUG  self-splicing fitness (ln)   0.137
18  CAAAAGCAAUAUUACGCCCA  self-splicing fitness (ln)  -0.538
19  UGAGAGCAAUAUUACGGUUG  self-splicing fitness (ln)   -2.64
20  GCACAGCAAUAUUACGGAUG  self-splicing fitness (ln)   -1.61
21  UACUAGCAAUAUUACGUCCA  self-splicing fitness (ln)   -0.49
22  GUUUAGCAAUAUUACGAUCC  self-splicing fitness (ln)  -0.434
23  CUCUAGCAAUAUUACGCGUG  self-splicing fitness (ln)   -3.01
24  AUUGAGCAAUAUUACGUCGA  self-splicing fitness (ln)   -1.18
25  UCUUAGCAAUAUUACGAAUA  self-splicing fitness (ln)  -0.936
26  UGUCAGCAAUAUUACGAUCU  self-splicing fitness (ln)  0.0205
27  UUUUAGCAAUAUUACGUGAC  self-splicing fitness (ln)  -0.031
28  UCAUAGCAAUAUUACGGUCC  self-splicing fitness (ln)   -1.81
29  AUCCAGCAAUAUUACGAUAC  self-splicing fitness (ln)  -0.914
30  UCUCAGCAAUAUUACGCUAG  self-splicing fitness (ln)    -1.8
31  ACUAAGCAAUAUUACGAGAC  self-splicing fitness (ln)   -3.24
32  CUUUAGCAAUAUUACGUAUU  self-splicing fitness (ln)   -1.34
33  UAGCAGCAAUAUUACGCCUU  self-splicing fitness (ln)   -0.21
34  AUCGAGCAAUAUUACGUUUG  self-splicing fitness (ln)   -2.05
35  CCAUAGCAAUAUUACGUCUC  self-splicing fitness (ln)   -3.05
36  GUCUAGCAAUAUUACGUAUC  self-splicing fitness (ln)   0.353
37  CAGCAGCAAUAUUACGAAUU  self-splicing fitness (ln)   -2.23
38  UUAAAGCAAUAUUACGGUAA  self-splicing fitness (ln)   0.503
39  AGUUAGCAAUAUUACGGGCA  self-splicing fitness (ln)  -0.162
40  GGGUAGCAAUAUUACGGACG  self-splicing fitness (ln)    -2.1
41  AGUUAGCAAUAUUACGCAAG  self-splicing fitness (ln)   -1.24
42  CGUCAGCAAUAUUACGGCAU  self-splicing fitness (ln)  -0.608
43  GUAGAGCAAUAUUACGUUGA  self-splicing fitness (ln)  -0.879
44  AGAUAGCAAUAUUACGAGUA  self-splicing fitness (ln)   -1.33
45  AGUGAGCAAUAUUACGCCAG  self-splicing fitness (ln)   -2.12
46  UAUUAGCAAUAUUACGCCAU  self-splicing fitness (ln)   -1.68
47  AGUGAGCAAUAUUACGUGUA  self-splicing fitness (ln)   -2.84
48  CUGCAGCAAUAUUACGGUGU  self-splicing fitness (ln)   -2.37
49  UCGGAGCAAUAUUACGACUU  self-splicing fitness (ln)   -2.48
50  UUUCAGCAAUAUUACGUUAC  self-splicing fitness (ln)   -2.66
51  UCUAAGCAAUAUUACGAUUG  self-splicing fitness (ln)   -2.26

====

assay.details: self-splicing fitness, log relative to wild type (ln ratio); higher = more splicing; Tetrahymena group I intron in knt gene, E. coli kanamycin selection, DiMSum; sequences stand for … in CUCUCU…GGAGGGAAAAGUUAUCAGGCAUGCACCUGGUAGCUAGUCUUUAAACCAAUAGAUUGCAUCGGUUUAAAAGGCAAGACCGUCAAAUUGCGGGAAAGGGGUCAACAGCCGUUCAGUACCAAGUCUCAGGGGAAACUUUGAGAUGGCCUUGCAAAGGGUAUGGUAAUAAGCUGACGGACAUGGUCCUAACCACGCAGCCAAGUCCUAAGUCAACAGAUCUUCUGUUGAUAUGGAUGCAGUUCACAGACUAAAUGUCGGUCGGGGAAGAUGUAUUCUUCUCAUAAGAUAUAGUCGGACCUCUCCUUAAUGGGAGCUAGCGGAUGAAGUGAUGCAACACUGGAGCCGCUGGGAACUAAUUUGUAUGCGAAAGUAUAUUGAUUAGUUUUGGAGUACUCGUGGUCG
condition.summary: 37 °C
Categorized via self-splicing fitness (ln): low: < -2; mid: ≥ -2 and < -0.6; high: ≥ -0.6

                     seq  group
 0  CUCUAGCAAUAUUACGCUAA    low
 1  GGAUAGCAAUAUUACGUGCA   high
 2  AUUUAGCAAUAUUACGGUAU    mid
 3  AGACAGCAAUAUUACGCCCC   high
 4  CAAGAGCAAUAUUACGGAGU    low
 5  UCACAGCAAUAUUACGACUG    mid
 6  AAAAAGCAAUAUUACGAGGU    low
 7  UUAAAGCAAUAUUACGUAGA    mid
 8  GACUAGCAAUAUUACGUCCC    mid
 9  GAGCAGCAAUAUUACGCUUU    low
10  AUAAAGCAAUAUUACGAGGA    mid
11  CUGUAGCAAUAUUACGGUGG    mid
12  CACCAGCAAUAUUACGUAAC    mid
13  CGAUAGCAAUAUUACGUAAA   high
14  GCACAGCAAUAUUACGGGGA    mid
15  UGCCAGCAAUAUUACGAUCA   high
16  CAGAAGCAAUAUUACGAAUG    mid
17  GCUCAGCAAUAUUACGUUUC   high
